Data provenance is ChEMBL document CHEMBL4376804.

- assay-target: Short transient receptor potential channel 3 (Homo sapiens, UniProt Q13507)
- assay-protocol: Inhibition of TRPC3 (unknown origin)
readout-name: IC50
For clarity, give the value followed by its unit.

[ask] Quick check: IC50 on Short transient receptor potential channel 3 (Homo sapiens, UniProt Q13507), item CCOC(=O)c1cnn(-c2ccc(NC(=O)C(Cl)=C(Cl)Cl)cc2)c1C(F)(F)F ?
[reply] 700 nM

###

- assay-target: Transient receptor potential cation channel subfamily V member 4 (Mus musculus, UniProt Q9EPK8)
- Sequence (Q9EPK8 whole entry): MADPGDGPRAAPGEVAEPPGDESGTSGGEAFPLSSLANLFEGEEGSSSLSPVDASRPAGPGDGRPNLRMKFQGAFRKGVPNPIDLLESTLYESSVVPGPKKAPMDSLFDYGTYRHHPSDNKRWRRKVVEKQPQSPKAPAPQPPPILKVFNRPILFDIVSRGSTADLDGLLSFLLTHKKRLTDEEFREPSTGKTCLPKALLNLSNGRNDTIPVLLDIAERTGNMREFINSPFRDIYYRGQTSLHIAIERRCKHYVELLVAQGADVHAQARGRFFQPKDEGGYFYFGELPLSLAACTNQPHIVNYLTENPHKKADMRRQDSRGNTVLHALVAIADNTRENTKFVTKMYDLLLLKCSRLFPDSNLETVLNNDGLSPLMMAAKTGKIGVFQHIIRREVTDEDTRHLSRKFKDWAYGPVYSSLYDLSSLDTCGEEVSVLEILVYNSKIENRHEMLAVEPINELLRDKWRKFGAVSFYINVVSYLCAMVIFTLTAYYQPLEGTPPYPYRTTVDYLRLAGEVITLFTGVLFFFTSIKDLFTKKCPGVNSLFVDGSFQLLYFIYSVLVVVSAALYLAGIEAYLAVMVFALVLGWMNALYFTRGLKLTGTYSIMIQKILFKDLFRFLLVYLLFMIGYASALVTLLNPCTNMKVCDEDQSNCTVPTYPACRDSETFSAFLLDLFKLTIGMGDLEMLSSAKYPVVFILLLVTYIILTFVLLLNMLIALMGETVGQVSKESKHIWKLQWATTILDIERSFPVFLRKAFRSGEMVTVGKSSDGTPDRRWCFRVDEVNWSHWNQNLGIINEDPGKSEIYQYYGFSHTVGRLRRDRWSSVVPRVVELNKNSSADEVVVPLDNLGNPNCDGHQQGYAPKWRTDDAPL
- assay-protocol: Inhibition of YFP-tagged mouse TRPV4 expressed in HEK293 cells assessed as reduction in calcium level by fluo-4 dye based fluorescence assay
pIC50: −log10 of the molar value.
readout-name: pIC50

[ask] Give its pIC50 value. Item: Clc1ccc(Cn2c(CN3CCCC3)nc3ccccc32)cc1
[reply] < 4.70

###

- assay-target: Transient receptor potential cation channel subfamily V member 2 (Rattus norvegicus, UniProt Q9WUD2)
- Sequence (Q9WUD2 whole entry): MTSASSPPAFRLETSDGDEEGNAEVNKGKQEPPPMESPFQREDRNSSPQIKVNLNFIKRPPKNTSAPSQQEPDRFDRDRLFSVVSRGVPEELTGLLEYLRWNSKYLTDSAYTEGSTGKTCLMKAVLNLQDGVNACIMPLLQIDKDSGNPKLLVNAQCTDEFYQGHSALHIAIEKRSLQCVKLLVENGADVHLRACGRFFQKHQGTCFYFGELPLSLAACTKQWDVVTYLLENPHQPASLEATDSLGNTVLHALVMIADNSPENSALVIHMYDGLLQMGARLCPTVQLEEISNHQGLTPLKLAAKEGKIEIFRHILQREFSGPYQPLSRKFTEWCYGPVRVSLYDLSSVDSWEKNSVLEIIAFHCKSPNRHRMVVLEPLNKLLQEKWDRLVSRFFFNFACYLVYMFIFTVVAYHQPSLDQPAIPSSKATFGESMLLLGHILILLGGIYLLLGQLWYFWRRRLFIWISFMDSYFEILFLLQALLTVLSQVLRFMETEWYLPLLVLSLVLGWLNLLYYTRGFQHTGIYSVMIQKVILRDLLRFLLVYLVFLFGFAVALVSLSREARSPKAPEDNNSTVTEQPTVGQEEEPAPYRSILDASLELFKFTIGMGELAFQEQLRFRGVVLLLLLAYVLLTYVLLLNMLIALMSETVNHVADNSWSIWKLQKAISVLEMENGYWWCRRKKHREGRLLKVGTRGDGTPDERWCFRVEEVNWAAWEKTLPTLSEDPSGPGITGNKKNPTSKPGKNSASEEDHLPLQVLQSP
- assay-protocol: Inhibition of YFP-tagged rat TRPV2 expressed in HEK293 cells assessed as reduction in calcium level by fluo-4 dye based fluorescence assay
- Type: cell-based
pIC50: −log10 of the molar value.
readout-name: pIC50

[ask] # input compound: Clc1ccc(Cn2c(CN3CCCC3)nc3ccccc32)cc1 [CLEMIZOLE] ; wanted: its pIC50
[reply] < 4.70

###

- assay-target: Short transient receptor potential channel 4 (Mus musculus)
- assay-protocol: Inhibition of mouse TRPC4 beta expressed in HEK293 cells co-expressing mu-opioid receptor assessed as reduction in DAMGO-induced intracellular calcium level in presence of mu-opioid receptor agonist DAMGO by Fluo-4AM dye based fluorescence assay
- Type: cell-based
readout-name: pIC50
Field pIC50 (float): negative decimal logarithm of the concentration in molar.

[ask] // map Cc1cc(N2CCCCC2)nc2ccccc12 to recorded pIC50 (system: Short transient receptor potential channel 4 (Mus musculus))
[reply] 6.02

###

- assay-target: Short transient receptor potential channel 5 (Mus musculus)
- Sequence (Q9QX29 whole entry): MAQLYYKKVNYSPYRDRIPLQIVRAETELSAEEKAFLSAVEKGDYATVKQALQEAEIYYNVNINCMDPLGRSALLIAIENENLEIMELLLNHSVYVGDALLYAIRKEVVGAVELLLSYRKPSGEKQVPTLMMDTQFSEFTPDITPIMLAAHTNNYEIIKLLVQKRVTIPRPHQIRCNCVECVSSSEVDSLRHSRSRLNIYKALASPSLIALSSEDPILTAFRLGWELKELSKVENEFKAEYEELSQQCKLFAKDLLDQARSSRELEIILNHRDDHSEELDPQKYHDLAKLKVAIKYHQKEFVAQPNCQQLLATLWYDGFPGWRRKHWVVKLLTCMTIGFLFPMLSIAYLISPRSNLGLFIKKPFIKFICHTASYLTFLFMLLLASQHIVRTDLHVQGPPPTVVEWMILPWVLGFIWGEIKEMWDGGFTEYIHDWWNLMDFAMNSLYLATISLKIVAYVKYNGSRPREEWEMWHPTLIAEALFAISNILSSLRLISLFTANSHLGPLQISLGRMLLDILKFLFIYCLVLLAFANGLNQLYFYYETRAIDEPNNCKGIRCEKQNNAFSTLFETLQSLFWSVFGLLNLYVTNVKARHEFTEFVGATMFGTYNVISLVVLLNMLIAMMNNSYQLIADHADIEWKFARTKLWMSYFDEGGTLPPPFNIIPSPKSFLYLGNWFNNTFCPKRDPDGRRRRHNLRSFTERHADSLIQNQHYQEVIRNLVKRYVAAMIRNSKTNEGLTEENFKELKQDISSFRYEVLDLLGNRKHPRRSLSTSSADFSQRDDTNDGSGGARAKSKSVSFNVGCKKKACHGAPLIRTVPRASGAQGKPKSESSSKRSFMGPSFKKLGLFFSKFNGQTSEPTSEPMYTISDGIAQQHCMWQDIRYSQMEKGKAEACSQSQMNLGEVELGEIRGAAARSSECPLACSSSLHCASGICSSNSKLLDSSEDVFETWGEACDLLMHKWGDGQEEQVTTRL
- assay-protocol: Inhibition of mouse TRPC5 by FLIPR assay
readout-name: IC50

[ask] Find the recorded IC50 belonging to N#Cc1ccc(O[C@@H]2c3ccccc3C[C@H]2N2CCC[C@@H](N)C2)c(Cl)c1 and report it.
[reply] > 10 µM

###

- assay-target: TRPC4/TRPC1 (Homo sapiens, UniProt P48995+Q9UBN4)
- assay-protocol: Antagonist activity at TRPC4/TRPC1 in human A498 cells assessed as reduction in englerin A-induced calcium entry preincubated for 30 mins followed by englerin A addition by fluorescence method
- Assay type: cell-based
readout-name: pIC50
Keep in mind that pIC50 stands for -log10 of concentration in molar terms.

[ask] // lookup pIC50 for CC(C)[C@]12C[C@@H](OCCO)[C@](C)(O1)[C@@H]1CC[C@@H](C)[C@H]1[C@@H]2OC(=O)/C=C/c1ccccc1
[reply] 7.21

###

- assay-target: Short transient receptor potential channel 7 (Homo sapiens)
- Sequence (Q9HCX4 whole entry): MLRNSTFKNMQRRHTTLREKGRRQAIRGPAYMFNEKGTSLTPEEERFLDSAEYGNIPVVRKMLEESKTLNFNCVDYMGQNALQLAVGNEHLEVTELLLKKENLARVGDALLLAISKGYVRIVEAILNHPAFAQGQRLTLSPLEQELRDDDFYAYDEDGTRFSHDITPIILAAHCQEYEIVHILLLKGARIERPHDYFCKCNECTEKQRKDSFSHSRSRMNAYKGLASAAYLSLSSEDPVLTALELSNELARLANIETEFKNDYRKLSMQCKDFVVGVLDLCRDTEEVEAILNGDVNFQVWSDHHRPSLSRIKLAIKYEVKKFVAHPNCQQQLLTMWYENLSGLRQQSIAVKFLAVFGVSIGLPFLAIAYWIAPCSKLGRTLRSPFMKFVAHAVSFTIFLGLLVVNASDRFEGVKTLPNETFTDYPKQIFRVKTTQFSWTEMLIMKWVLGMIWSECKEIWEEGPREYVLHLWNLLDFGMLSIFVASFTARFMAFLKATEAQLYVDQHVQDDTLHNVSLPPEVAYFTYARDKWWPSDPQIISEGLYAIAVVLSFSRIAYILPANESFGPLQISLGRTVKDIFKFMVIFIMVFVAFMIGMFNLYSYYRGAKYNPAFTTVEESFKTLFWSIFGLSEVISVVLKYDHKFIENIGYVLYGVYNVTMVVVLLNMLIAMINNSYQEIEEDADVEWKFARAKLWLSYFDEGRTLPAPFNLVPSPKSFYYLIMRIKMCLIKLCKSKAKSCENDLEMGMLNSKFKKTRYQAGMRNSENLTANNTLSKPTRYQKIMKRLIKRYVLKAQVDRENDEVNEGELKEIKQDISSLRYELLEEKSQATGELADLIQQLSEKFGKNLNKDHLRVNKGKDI
- assay-protocol: Inhibition of human TRPC7 expressed in HEK293 cells assessed as reduction in OAG-induced calcium influx after 10 mins by fluo-4/AM dye based FLIPR assay
readout-name: IC50

[ask] Observed IC50 on Short transient receptor potential channel 7 (Homo sapiens) for N#Cc1ccc(O[C@@H]2c3ccccc3C[C@H]2N2CCC[C@@H](N)C2)c(Cl)c1 , please.
[reply] 226 nM

###

- assay-target: Short transient receptor potential channel 4 (Mus musculus, UniProt Q9QUQ5)
- Sequence (Q9QUQ5 whole entry): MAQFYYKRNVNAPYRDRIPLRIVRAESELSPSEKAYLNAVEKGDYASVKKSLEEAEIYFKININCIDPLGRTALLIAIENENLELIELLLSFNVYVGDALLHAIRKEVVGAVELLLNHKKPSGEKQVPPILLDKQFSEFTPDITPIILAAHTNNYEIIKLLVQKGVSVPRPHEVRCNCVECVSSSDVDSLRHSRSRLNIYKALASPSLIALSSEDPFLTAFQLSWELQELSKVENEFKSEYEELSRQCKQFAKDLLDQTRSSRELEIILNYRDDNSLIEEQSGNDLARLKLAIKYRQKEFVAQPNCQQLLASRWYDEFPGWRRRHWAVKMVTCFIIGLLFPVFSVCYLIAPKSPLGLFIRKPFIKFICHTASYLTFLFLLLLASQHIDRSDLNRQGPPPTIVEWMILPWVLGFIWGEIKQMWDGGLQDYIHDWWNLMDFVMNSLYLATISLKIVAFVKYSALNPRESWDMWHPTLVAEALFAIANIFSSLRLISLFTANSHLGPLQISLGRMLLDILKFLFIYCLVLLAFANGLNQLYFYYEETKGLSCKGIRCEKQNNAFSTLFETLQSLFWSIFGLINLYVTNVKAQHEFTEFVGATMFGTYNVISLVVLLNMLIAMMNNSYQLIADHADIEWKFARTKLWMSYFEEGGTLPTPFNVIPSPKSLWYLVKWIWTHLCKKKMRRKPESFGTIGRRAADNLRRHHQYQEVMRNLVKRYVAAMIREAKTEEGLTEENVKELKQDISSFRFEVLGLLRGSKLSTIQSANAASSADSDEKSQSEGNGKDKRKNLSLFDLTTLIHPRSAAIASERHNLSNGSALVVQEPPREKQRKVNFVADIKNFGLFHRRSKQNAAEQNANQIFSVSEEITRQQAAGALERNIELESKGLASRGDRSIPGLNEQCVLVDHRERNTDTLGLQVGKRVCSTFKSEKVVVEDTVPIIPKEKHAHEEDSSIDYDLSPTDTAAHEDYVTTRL
- assay-protocol: Inhibition of mouse TRPC4 by FLIPR assay
pIC50: −log10 of the molar value.
readout-name: pIC50

[ask] Provide value of pIC50 for this record tested with Short transient receptor potential channel 4 (Mus musculus, UniProt Q9QUQ5): N#Cc1ccc(O[C@@H]2c3ccccc3C[C@H]2N2CCC[C@@H](N)C2)c(Cl)c1
[reply] < 5.00
